biological target: Solute carrier family 15 member 1 (Homo sapiens); experiment: Activation of human PEPT1 expressed in MDCK cells
pEC50: −log10 of the molar value. Where a SMILES comes first, the peptide text is derived from it.
Measure Name: pEC50

> print(dat)
                                    compound  measure.name  result
 1  N[C@@H](CC(=O)O)C(=O)NCC(=O)O (H-Asp-Gly-OH)         pEC50    3.36
 2  C[C@H](N)C(=O)N[C@@H](Cc1ccc(O)cc1)C(=O)O (H-Ala-Tyr-OH)         pEC50    4.22
 3  NCC(=O)N[C@@H](Cc1c[nH]c2ccccc12)C(=O)O (H-Gly-Trp-OH)         pEC50    3.48
 4  NCCCC[C@H](N)C(=O)NCC(=O)O (H-Lys-Gly-OH)         pEC50    3.49
 5  NCC(=O)N[C@@H](CC(=O)O)C(=O)O (H-Gly-Asp-OH)         pEC50    3.26
 6  C[C@H](NC(=O)[C@@H](N)Cc1ccc(O)cc1)C(=O)O         pEC50    4.00
 7  N[C@@H](CC(=O)O)C(=O)N[C@@H](Cc1c[nH]c2ccccc12)C(=O)O (H-Asp-Trp-OH)         pEC50    3.33
 8  NCC(=O)N[C@@H](Cc1ccccc1)C(=O)O (H-Gly-Phe-OH)         pEC50    3.89
 9  CC(C)[C@H](NC(=O)[C@@H](N)CC(=O)O)C(=O)O (H-Asp-Val-OH)         pEC50    3.16
10  CC(C)[C@H](N)C(=O)N[C@@H](Cc1c[nH]c2ccccc12)C(=O)O [VALYLTRYPTOPHAN] (H-Val-Trp-OH)         pEC50    4.40
11  CC(C)[C@H](N)C(=O)N[C@H](C(=O)O)C(C)C [VAL-VAL] (H-Val-Val-OH)         pEC50    4.15
12  NC(=O)CC[C@H](N)C(=O)N[C@@H](CCC(=O)O)C(=O)O (H-Gln-Glu-OH)         pEC50    3.38
13  NCCCC[C@H](NC(=O)CN)C(=O)O (H-Gly-Lys-OH)         pEC50    3.12
14               CC(C)C[C@H](NC(=O)CN)C(=O)O         pEC50    3.77
15  N[C@@H](Cc1ccccc1)C(=O)NCC(=O)O (H-Phe-Gly-OH)         pEC50    3.96
16        N[C@@H](Cc1ccc(O)cc1)C(=O)NCC(=O)O         pEC50    3.62
17  NCCCC[C@H](N)C(=O)N[C@@H](CCC(=O)O)C(=O)O (H-Lys-Glu-OH)         pEC50    3.28
18  NC(=O)CC[C@H](NC(=O)[C@@H](N)CCC(N)=O)C(=O)O (H-Gln-Gln-OH)         pEC50    4.00
19  N[C@@H](Cc1c[nH]c2ccccc12)C(=O)NCC(=O)O (H-Trp-Gly-OH)         pEC50    3.59
20  N[C@@H](Cc1ccc(O)cc1)C(=O)N[C@@H](Cc1ccc(O)cc1)C(=O)O (H-Tyr-Tyr-OH)         pEC50    4.22

###

biological target: Solute carrier family 15 member 1 (Homo sapiens, UniProt P46059); test: Activation of human PEPT1 expressed in MDCK cells; type: functional, cell-based
Sequence (P46059 whole entry): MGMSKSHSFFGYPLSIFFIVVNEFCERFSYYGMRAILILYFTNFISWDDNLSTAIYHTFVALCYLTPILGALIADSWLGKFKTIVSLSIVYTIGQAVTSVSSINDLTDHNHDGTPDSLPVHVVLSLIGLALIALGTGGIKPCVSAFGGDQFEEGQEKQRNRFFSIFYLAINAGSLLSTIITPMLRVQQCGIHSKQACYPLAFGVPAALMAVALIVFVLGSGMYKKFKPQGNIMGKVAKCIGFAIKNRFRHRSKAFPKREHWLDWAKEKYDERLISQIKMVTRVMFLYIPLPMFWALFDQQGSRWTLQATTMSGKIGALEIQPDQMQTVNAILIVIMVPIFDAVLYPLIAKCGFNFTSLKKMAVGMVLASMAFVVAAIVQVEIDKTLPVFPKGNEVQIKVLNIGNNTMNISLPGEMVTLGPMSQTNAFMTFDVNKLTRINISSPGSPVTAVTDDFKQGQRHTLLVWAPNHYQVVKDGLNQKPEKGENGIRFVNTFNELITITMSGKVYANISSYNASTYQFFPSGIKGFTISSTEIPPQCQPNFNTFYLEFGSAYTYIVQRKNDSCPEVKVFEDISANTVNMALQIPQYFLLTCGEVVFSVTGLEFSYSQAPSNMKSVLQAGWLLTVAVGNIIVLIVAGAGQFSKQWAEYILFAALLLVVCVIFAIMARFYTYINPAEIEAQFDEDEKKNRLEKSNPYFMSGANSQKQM
Where a SMILES comes first, the peptide text is derived from it. [ ]: non-standard residue; d: D form. Sar = CNCC(=O)O
Measure Name: EC50

> print(dat)
                                    compound     result
 1  O=C(O)C[C@H](NC(=O)[C@@H]1CCCN1)C(=O)O (H-Pro-Asp-OH)  > 5000 µM
 2                    NCC(=O)NCC(=O)NCC(=O)O     580 µM
 3  C[C@H](N)C(=O)N[C@@H](C)C(=O)O (H-Ala-Ala-OH)      80 µM
 4  CC(C)[C@H](N)C(=O)N[C@H](C(=O)N[C@H](C(=O)O)C(C)C)C(C)C (H-Val-Val-Val-OH)     210 µM
 5  CC(C)[C@H](NC(=O)[C@@H](N)CCCCN)C(=O)O (H-Lys-Val-OH)     140 µM
 6  O=C(O)[C@@H]1CCCN1C(=O)[C@@H]1CCCN1 (H-Pro-Pro-OH)     700 µM
 7  CN(CC(=O)O)C(=O)CN [GLYCYLSARCOSINE] (H-Gly-[Sar]-OH)     540 µM
 8  C[C@H](N)C(=O)N[C@@H](CCCCN)C(=O)O (H-Ala-Lys-OH)     220 µM
 9  NCCCC[C@H](NC(=O)[C@@H](N)CCC(=O)O)C(=O)O (H-Glu-Lys-OH)     310 µM
10  NC(N)=NCCC[C@H](N)C(=O)NCC(=O)O (H-Arg-Gly-OH)     270 µM
11  CC(C)C[C@H](NC(=O)CN)C(=O)N[C@@H](Cc1ccccc1)C(=O)O (H-Gly-Leu-Phe-OH)     280 µM
12  C[C@H](N)C(=O)N[C@@H](CC(=O)O)C(=O)O (H-Ala-Asp-OH)     230 µM
13  N[C@@H](CCC(=O)O)C(=O)NCC(=O)O (H-Glu-Gly-OH)     510 µM
14  NC(=O)[C@H](Cc1ccc(O)cc1)NC(=O)[C@@H](N)Cc1ccccc1 (H-Phe-Tyr-NH2)      30 µM
15      NCCCC[C@H](N)C(=O)N1CCC[C@@H]1C(=O)O     190 µM
16    C[C@H](NC(=O)[C@@H](N)Cc1ccccc1)C(N)=O     850 µM

###

molecular target: Solute carrier family 15 member 1 (Homo sapiens, UniProt P46059); experiment: Binding affinity to human PEPT1 assessed as inhibition of [14C]Gly-Sar uptake in MDCK cells; format: functional, cell-based; conditions: read-out: IC50
pIC50: −log10 of the molar value. Where a SMILES comes first, the peptide text is derived from it.
Reported values of pIC50 for individual entries
Measure Name: pIC50

> print(dat)
                                   compound                             system.tested  measure.name  result
1  NCC(=O)N[C@@H](CCC(=O)O)C(=O)O (H-Gly-Glu-OH)  Solute carrier family 15 member 1 (Homo sapiens, UniProt P46059)         pIC50    3.19
2  N[C@@H](Cc1ccc(O)cc1)C(=O)N[C@@H](Cc1c[nH]c2ccccc12)C(=O)O (H-Tyr-Trp-OH)  Solute carrier family 15 member 1 (Homo sapiens, UniProt P46059)         pIC50    4.00
3  NCCCC[C@H](NC(=O)[C@@H](N)CCCN=C(N)N)C(=O)O (H-Arg-Lys-OH)  Solute carrier family 15 member 1 (Homo sapiens, UniProt P46059)         pIC50    2.09
4  N[C@@H](Cc1c[nH]cn1)C(=O)N[C@@H](Cc1c[nH]cn1)C(=O)O  Solute carrier family 15 member 1 (Homo sapiens, UniProt P46059)         pIC50    3.40
5  NCC(=O)N[C@@H](Cc1c[nH]cn1)C(=O)O (H-Gly-His-OH)  Solute carrier family 15 member 1 (Homo sapiens, UniProt P46059)         pIC50    3.09
6  NCCCC[C@H](N)C(=O)NCC(=O)O (H-Lys-Gly-OH)  Solute carrier family 15 member 1 (Homo sapiens, UniProt P46059)         pIC50    3.42
7  N[C@@H](Cc1ccc(O)cc1)C(=O)N[C@@H](Cc1ccc(O)cc1)C(=O)O (H-Tyr-Tyr-OH)  Solute carrier family 15 member 1 (Homo sapiens, UniProt P46059)         pIC50    4.22
8            NCC(=O)NCC(=O)O (H-Gly-Gly-OH)  Solute carrier family 15 member 1 (Homo sapiens, UniProt P46059)         pIC50    3.09
9  CC(C)[C@H](NC(=O)[C@@H](N)Cc1c[nH]c2ccccc12)C(=O)O (H-Trp-Val-OH)  Solute carrier family 15 member 1 (Homo sapiens, UniProt P46059)         pIC50    4.05
